reported_property: melting point

molecule | melting point
O=c1cc(Cn2cc(Cn3ccc4cc(F)ccc43)nn2)c2ccc(O)cc2o1 [Compound 10e] | 181 to 184 °C
Fc1ccccc1-n1cc(Cn2ccc3c(Cl)ncnc32)nn1 | 112 to 114 °C

Consider now this further molecule.
melting point recorded for this molecule, FC(F)(F)c1ccc(-n2cc(Cn3cnc4ccnc(Cl)c43)nn2)cc1 , is 183 to 185 °C

Taken from paper PMC6009932.
